Population Membrane Permeable-Phenotype (%) listing for selected molecules.
Test system: Fibroblast
Experiment: Multiplex assay against human fibroblast
Format: toxicity, cell-based
Conditions: 48 h, 1 µM, compound concentration 1 uM, replicate 2
RESULT TYPE: Population Membrane Permeable-Phenotype (%)

[
  {
    "MOLECULE": "Cc1onc(-c2ccccc2Cl)c1C(=O)N(C)c1ccc(Cl)cc1",
    "MEASUREMENT UNIT": "%",
    "VALUE MEASURED": 10
  },
  {
    "MOLECULE": "CCCCC(=O)N(Cc1ccc(-c2ccccc2-c2nnn[nH]2)cc1)[C@H](C(=O)O)C(C)C",
    "MEASUREMENT UNIT": "%",
    "VALUE MEASURED": 1
  },
  {
    "MOLECULE": "COC[C@@H](c1ccc(C(F)(F)F)cc1)N1CCN(C2(C)CCN(C(=O)c3c(C)ncnc3C)CC2)C[C@@H]1C.O=C(O)/C=C\\C(=O)O [VICRIVIROC MALEATE]",
    "MEASUREMENT UNIT": "%",
    "VALUE MEASURED": 9
  },
  {
    "MOLECULE": "CCc1cc2cc(NS(=O)(=O)c3ccc(C#N)cc3)ccc2n(CC)c1=O",
    "MEASUREMENT UNIT": "%",
    "VALUE MEASURED": 12
  },
  {
    "MOLECULE": "CC(C)c1noc(N2CCC(COc3ccc(-c4ccc(S(C)(=O)=O)cc4)nc3)CC2)n1 [GSK-1292263]",
    "MEASUREMENT UNIT": "%",
    "VALUE MEASURED": 13
  },
  {
    "MOLECULE": "COc1ccccc1N1CCN(C[C@@H](C(=O)NC(C)(C)C)c2ccccc2)CC1.Cl.Cl",
    "MEASUREMENT UNIT": "%",
    "VALUE MEASURED": 5
  },
  {
    "MOLECULE": "O=C1[C@H](Cc2ccc(O)cc2)N2C(=O)CCN(C(=O)NCc3ccccc3)[C@H]2CN1Cc1cccc2ccccc12",
    "MEASUREMENT UNIT": "%",
    "VALUE MEASURED": 5
  },
  {
    "MOLECULE": "CCCCCC(O)/C=C/[C@H]1C(=O)CC(O)C1C/C=C\\CCCC(=O)O (some centres not stated)",
    "MEASUREMENT UNIT": "%",
    "VALUE MEASURED": 3
  },
  {
    "MOLECULE": "CC[C@@H](C)Nc1nc(C)nc2c(-c3ccc(OC)nc3C)c(C)nn12 [PEXACERFONT]",
    "MEASUREMENT UNIT": "%",
    "VALUE MEASURED": 26
  },
  {
    "MOLECULE": "Cc1cnc(-c2cc(N3CCN(C(=O)CCS(C)(=O)=O)CC3)ncc2Cl)c(C)c1",
    "MEASUREMENT UNIT": "%",
    "VALUE MEASURED": 12
  },
  {
    "MOLECULE": "Cl.N=C(N)NC(=O)Cc1c(Cl)cccc1Cl [GUANFACINE HYDROCHLORIDE]",
    "MEASUREMENT UNIT": "%",
    "VALUE MEASURED": 4
  },
  {
    "MOLECULE": "CCCOc1ccc2[nH]cc(C3=CCNCC3)c2n1.Cl",
    "MEASUREMENT UNIT": "%",
    "VALUE MEASURED": 5
  },
  {
    "MOLECULE": "CN[C@@H](C)C(=O)N[C@H](C(=O)N1CCC[C@H]1C(=O)Nc1snnc1-c1ccccc1)C1CCCCC1 [GDC-0152]",
    "MEASUREMENT UNIT": "%",
    "VALUE MEASURED": 2
  },
  {
    "MOLECULE": "Cc1sc2c(c1C)C(c1ccc(Cl)cc1)=N[C@@H](CC(=O)NCCCCCCCCNC(=O)COc1cccc3c1C(=O)N(C1CCC(=O)NC1=O)C3=O)c1nnc(C)n1-2 (some centres not stated)",
    "MEASUREMENT UNIT": "%",
    "VALUE MEASURED": 27
  },
  {
    "MOLECULE": "CC(C)COc1ccc(CNC(=O)N(Cc2ccc(F)cc2)C2CCN(C)CC2)cc1 [PIMAVANSERIN]",
    "MEASUREMENT UNIT": "%",
    "VALUE MEASURED": 4
  },
  {
    "MOLECULE": "CC(/C=C1\\SC(=S)N(CCCC(=O)Nc2ccc(C(=O)O)c(O)c2)C1=O)=C\\c1ccccc1",
    "MEASUREMENT UNIT": "%",
    "VALUE MEASURED": 7
  },
  {
    "MOLECULE": "CCCCC1=NC2(CCCC2)C(=O)N1Cc1ccc(-c2ccccc2-c2nnn[nH]2)cc1 [IRBESARTAN]",
    "MEASUREMENT UNIT": "%",
    "VALUE MEASURED": 2
  }
]

Source: ChEMBL document CHEMBL5058577
